Origin of values: the supplement of paper PMC5998384

System: HeLa Kyoto;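 also: synchronized HeLa Kyoto cells (double thymidine block for G1/S, nocodazole release for mitosis), protein amounts in NP-40 versus SDS lysates quantified by mass spectrometry, three biological replicates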
Experiment: solubility change mitosis vs G1/S (difference of NP-40 vs SDS log2 ratios) (log2 ratio difference); higher = more soluble in mitosis
MEASURED_QUANTITY: solubility change mitosis (log2)
Please state the value as a number alone, without comment.

Answer with the recorded solubility change mitosis (log2) for the sequence listed here: MGAFLDKPKMEKHNAQGQGNGLRYGLSSMQGWRVEMEDAHTAVIGLPSGLESWSFFAVYDGHAGSQVAKYCCEHLLDHITNNQDFKGSAGAPSVENVKNGIRTGFLEIDEHMRVMSEKKHGADRSGSTAVGVLISPQHTYFINCGDSRGLLCRNRKVHFFTQDHKPSNPLEKERIQNAGGSVMIQRVNGSLAVSRALGDFDYKCVHGKGPTEQLVSPEPEVHDIERSEEDDQFIILACDGIWDVMGNEELCDFVRSRLEVTDDLEKVCNEVVDTCLYKGSRDNMSVILICFPNAPKVSPEAVKKEAELDKYLECRVEEIIKKQGEGVPDLVHVMRTLASENIPSLPPGGELASKRNVIEAVYNRLNPYKNDDTDSTSTDDMW [PPM1A]
-0.159

In one line, give reported solubility change mitosis (log2) of the entry MLGWIKRLIRMVFQQVGVSMQSVLWSRKPYGSSRSIVRKIGTNLSLIQCPRVQFQINSHATEWSPSHPGEDAVASFADVGWVAKEEGECSARLRTEVRSRPPLQDDLLFFEKAPSRQISLPDLSQEEPQLKTPALANEEALQKICALENELAALRAQIAKIVTQQEQQNLTAGDLDSTTFGTIPPHPPPPPPPLPPPALGLHQSTSAVDLIKERREKRANAGKTLVKNNPKKPEMPNMLEILKEMNSVKLRSVKRSEQDVKPKPVDATDPAALIAEALKKKFAYRYRSDSQDEVEKGIPKSESEATSERVLFGPHMLKPTGKMKALIENVSDS [MTFR1] .
0.0301
